FYI, the data here is from ChEMBL document CHEMBL1144507.

Catalogue of MFC readings, one per entry.
- Tested on: Candida albicans
- assayText: Antifungal activity against Candida albicans C130-2000 after 48 hrs
- Type: functional

- compound: "O=C1NC(=S)S/C1=C\\c1ccc(C(F)(F)F)cc1"
  MFC: "62.5 µg/mL"
- compound: "C[C@@H]1[C@H](O)[C@@H](C)/C=C/C=C/C=C/C=C/C=C/C=C/C=C/[C@H](O[C@@H]2O[C@H](C)[C@@H](O)[C@H](N)[C@@H]2O)C[C@@H]2O[C@](O)(C[C@@H](O)C[C@@H](O)[C@H](O)CC[C@@H](O)C[C@@H](O)CC(=O)O[C@H]1C)C[C@H](O)[C@H]2C(=O)O"
  MFC: "0.78 µg/mL"
- compound: "O=C1NC(=S)S/C1=C\\c1ccc(F)cc1"
  MFC: "31.2 µg/mL"
- compound: "CC(=O)N1CCN(c2ccc(OCC3COC(Cn4ccnc4)(c4ccc(Cl)cc4Cl)O3)cc2)CC1 (centres undefined)"
  MFC: "6.25 µg/mL"
